System: L1210
Test: Inhibitory activity against L1210 cell growth
Type: functional, cell-based
Conditions: Mus musculus
As shown below, each of these compounds has a reported IC50 value.
API: value field is a number in nM; no unit string.

Before answering, review these 2 worked examples.
COC1=CC(=O)c2ncnc(NCCCN(C)CCCNc3ncnc4c3C(=O)C(OC)=CC4=O)c2C1=O :: 1250
O=C1C(N2CC2)=C(N2CC2)C(=O)c2ncncc21 :: 80

Attention now shifts to the item below.
The recorded IC50 for entry CN(CCCNc1ncnc2c1C(=O)C(N1CC1)=C(N1CC1)C2=O)CCCNc1ncnc2c1C(=O)C(N1CC1)=C(N1CC1)C2=O equals 4.8
